Tested on: HeLa cells
test protocol: Cell cycle assay in HeLa cells
Type: cell-based, human
run parameters: HeLa, 150 nM, 48 hours
Procedure: In some embodiments, HeLa cells were plated on collagen-coated 24-well plates at 50,000-60,000 cells per well, and allowed to attach to wells overnight. […] In some embodiments, HeLa cells were also treated with oligomeric compounds targeting miRNAs. […] The cell cycle profile was analyzed with the ModFit program (Verity Software House, Inc., Topsham Me.). […]
In the oligonucleotide strings, read from the 5' end, every base follows the letter of its sugar. An asterisk marks phosphorothioate; unmarked linkages are phosphodiester. Other units and linkages are bracketed, terminal groups are in braces. A string of capitals states the bases alone. e = 2'-O-(2-methoxyethyl) (MOE); [5mC] = 5-methylcytosine; d = 2'-deoxy (DNA)
measured attribute: phase of the cell cycle in which cells arrest or delay

- substance: "ISIS 328403: 5-10-5 2′-MOE gapmer PS; SEQ ID NO 512; targets mir-106 pri-miRNA (eA*eG*eG*e[5mC]*e[5mC]*dT*dA*dT*dT*d[5mC]*d[5mC]*dT*dG*dT*dA*eG*e[5mC]*eA*eA*eA) [5-10-5 2′-MOE gapmer PS; targets mir-106 pri-miRNA]"
  result: "S- and G2/M-phases"
- substance: "ISIS 338637: SEQ ID NO: 464, targeted against mir-96 (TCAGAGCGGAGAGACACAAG; all 2'-MOE, all phosphorothioate, methylation of C not given here)"
  result: "S-phase"
- substance: "ISIS 328421: 5-10-5 2′-MOE gapmer PS; targets mir-30d pri-miRNA (eG*e[5mC]*eT*eT*eA*dG*d[5mC]*dT*dG*dT*dG*dT*d[5mC]*dT*dT*eA*e[5mC]*eA*eG*e[5mC])"
  result: "S- and G2/M-phases"
- substance: "AGCCTATCCTGGATTACTTGAA (chemistry not fully specified) [ISIS 345373]"
  result: "S-phase"
